B1: library; numbered along this chain (parent)
chain: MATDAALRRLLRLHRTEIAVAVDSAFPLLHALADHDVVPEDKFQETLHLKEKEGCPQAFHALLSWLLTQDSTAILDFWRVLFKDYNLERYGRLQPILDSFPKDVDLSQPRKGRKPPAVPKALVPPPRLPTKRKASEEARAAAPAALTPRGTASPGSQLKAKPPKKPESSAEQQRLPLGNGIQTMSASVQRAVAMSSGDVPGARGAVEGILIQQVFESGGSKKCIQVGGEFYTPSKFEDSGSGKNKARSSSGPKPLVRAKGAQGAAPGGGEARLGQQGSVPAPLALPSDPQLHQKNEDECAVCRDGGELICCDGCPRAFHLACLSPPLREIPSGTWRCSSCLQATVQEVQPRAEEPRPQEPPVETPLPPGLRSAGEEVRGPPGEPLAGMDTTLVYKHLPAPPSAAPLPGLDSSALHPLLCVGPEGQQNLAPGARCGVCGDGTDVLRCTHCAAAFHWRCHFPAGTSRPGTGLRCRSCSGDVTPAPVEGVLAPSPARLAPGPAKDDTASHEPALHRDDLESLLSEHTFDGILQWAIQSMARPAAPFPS

variants of: B1; assay: AIRE transcriptional activation functional score (insulin promoter-GFP; nonsense median 0, synonymous median 1) (normalised score); higher = higher AIRE activity (more reporter activation); conditions: with insulin promoter-GFP reporter in HEK293
Here, each record is paired with measured AIRE transcriptional activation functional score data.
Lab note: jot down the number only; don't add units.

The examples below pair each entry with its known result.
mutation_label	experimental_result
D297Q	1.32
A450P	0.565
H60Y	0.332
S324G	1.01
E353Y	1.42
K83N	0.0819
P162H	2.88
P325T	0.777
A461C	0.883
Q293R	0.982

Enquiry: Name the reported AIRE transcriptional activation functional score value associated with the variant F236A
Return: 1.03

Enquiry: Name the reported AIRE transcriptional activation functional score value associated with the variant V22R
Return: 0.528

Enquiry: Name the reported AIRE transcriptional activation functional score value associated with the variant H512F
Return: 1.21
